Value source: patent US7604975B2

Tested on: LPXTGase
Format: biochemical, Streptococcus pyogenes
run parameters: 20 mM salt; 40 mM Tris-HCl pH 7.6, 0.1% Brij 35; one hour at 37° C.; control 41,530 cpm
Listed compounds paired with reported peptide cleaved, cpm

Previously resolved entries follow.
>>> observed_result("[Ca+2].[Cl-].[Cl-] [Calcium chloride]")
"9,706 cpm"
>>> observed_result("Cl.Cl.NCCCCN [Putrescene chloride]")
"8,710 cpm"
>>> observed_result("[Cl-].[Cl-].[Mg+2] [Magnesium chloride]")
"8,615 cpm"

[Q] Kindly indicate its recorded peptide cleaved, cpm. Item: O=C(O)CN(CCN(CC(=O)O)CC(=O)O)CC(=O)O [EDTA]
[A] 2,147 cpm

[Q] Kindly indicate its recorded peptide cleaved, cpm. Item: O=P(O)(O)O [Sodium phosphate]
[A] 20,646 cpm

[Q] Kindly indicate its recorded peptide cleaved, cpm. Item: O=S(=O)([O-])[O-].[Na+].[Na+] [Sodium sulfate]
[A] 23,454 cpm
